Reference source for all entries: patent US20240132431A1

target: Bcl-2 protein (Recombinant Human Bcl-2 Protein) (Homo sapiens); construct: purchased Novus NBP2-34889; assay: Binding evaluation of mixture library compounds to Bcl-2 using AS-MS (affinity selection mass spectrometry); settings: AS-MS, mixture library, Bcl-2; replicate n = 1; ASMS Ratio(%)=(A−C)/B×100
Sequence (P10415 whole entry): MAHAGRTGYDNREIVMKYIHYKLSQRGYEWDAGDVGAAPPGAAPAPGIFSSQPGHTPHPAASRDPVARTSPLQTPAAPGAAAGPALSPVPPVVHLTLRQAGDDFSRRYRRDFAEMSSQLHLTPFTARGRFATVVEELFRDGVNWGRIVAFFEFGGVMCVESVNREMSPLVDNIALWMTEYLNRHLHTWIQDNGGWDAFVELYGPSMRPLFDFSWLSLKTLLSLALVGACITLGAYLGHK
MEASURED METRIC: ASMS ratio (%) n = 1

> print(dat)
                                  structure       measured.metric  experimental.value
1  CCOc1cccc(-c2ccc(C(=O)N3CCN(c4ccc(C(=O)NS(C)(=O)=O)cc4)CC3)c3ccccc23)c1  ASMS ratio (%) n = 1                 0.0

a = CCOc1cccc(-c2ccc(C(=O)N3CCN(c4ccc(C(=O)NS(=O)(=O)CC56CC7CC(CC(C7)C5)C6)nn4)CC3)cc2C)c1
b = CCOc1cncc(-c2cc(OC)c(CN3CCN(c4ccc(C(=O)NS(=O)(=O)c5ccc(NCCSc6ccccc6)c([N+](=O)[O-])c5)nn4)CC3)c(OC)c2)c1
Pick one: a or b . Which one has the lower reported ASMS ratio (%) n = 1? // respond with label for picked entry
b

A = CCOc1cccc(-c2ccc(C(=O)N3CCN(c4ccc(C(=O)NS(C)(=O)=O)nn4)CC3)cc2C)c1
B = CCOc1cncc(C#Cc2ccccc2C(=O)N2CCN(c3ccc(C(=O)NS(=O)(=O)c4ccc(NCCSc5ccccc5)c([N+](=O)[O-])c4)nn3)CC2)c1
C = CCOc1cccc(-c2ccc(CN3CCN(c4ccc(C(=O)N(CC)CC)nn4)CC3)cc2F)c1
Hello, I need these entries ordered by ASMS ratio (%) n = 1, highest reading first. Thanks! Put the labels in the requested order and write them down.
B, C, A

###

target: Bcl-2 protein (Recombinant Human Bcl-2 Protein) (Homo sapiens); construct: purchased Novus NBP2-34889; assay: Binding evaluation of mixture library compounds to Bcl-2 using AS-MS (affinity selection mass spectrometry); details: n = 2
MEASURED METRIC: ASMS ratio (%)

> print(dat)
                                   molecule                           subject.of.test  experimental.value
1  CCOc1cncc(-c2ccc(C(C)N3CCN(c4ccc(C(=O)NS(=O)(=O)C(C)(C)C)cc4)CC3)c(F)c2)c1 (stereo not drawn) [B2L100-01]  Bcl-2 protein (Recombinant Human Bcl-2 Protein) (Homo sapiens)                 0.0
2  CCOc1cncc(-c2cc(CN3CCN(c4ccc(C(=O)NS(=O)(=O)C(C)(C)C)cc4)CC3)cc(C(F)(F)F)c2)c1 [B2L062-01]  Bcl-2 protein (Recombinant Human Bcl-2 Protein) (Homo sapiens)                 0.0

1 = CCOc1cncc(-c2cnn(-c3cc(C(=O)N4CCN(c5ccc(C(=O)NS(C)(=O)=O)cc5)CC4)cc(C(F)(F)F)c3)c2)c1 [B2I044-01]
2 = CCOc1cncc(-c2cc(CN3CCN(c4ccc(C(=O)NS(=O)(=O)C(C)(C)C)nn4)CC3)cc(OC(C)C)c2)c1 [B2L084-01]
3 = CCOc1cncc(-c2cc(CN3CCN(c4ccc(C(=O)NS(=O)(=O)c5ccc(NCCSc6ccccc6)c(C(F)(F)F)c5)cc4)CC3)cc(OC(F)(F)F)c2)c1 [B2R064-01]
4 = CCOc1cncc(-c2ccc(C(C)N3CCN(c4ccc(C(=O)NS(=O)(=O)CCC(F)(F)F)cc4)CC3)cc2)c1 (stereo not drawn) [B2N098-01]
Order the items by recorded ASMS ratio (%); the first position goes to the largest value. # respond with the labels, arranged in the requested order
1, 4, 2, 3
